The reported measurements were obtained from patent EP4813463A2.

Molecular target: JAK1-JH2 domain (Homo sapiens, UniProt P23458)
Construct: JAK1-JH2 domain or TYK2-JH2 domain enzyme in assay buffer
Sequence (P23458 583-855 limits assumed): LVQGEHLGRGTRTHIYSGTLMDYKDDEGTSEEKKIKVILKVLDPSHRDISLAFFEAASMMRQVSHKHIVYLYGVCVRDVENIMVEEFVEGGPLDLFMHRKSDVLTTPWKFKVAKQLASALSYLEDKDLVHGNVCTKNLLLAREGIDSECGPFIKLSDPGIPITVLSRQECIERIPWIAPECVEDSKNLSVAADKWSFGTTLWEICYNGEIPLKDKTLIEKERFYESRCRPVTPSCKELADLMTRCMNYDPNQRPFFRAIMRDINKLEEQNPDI
Assay: Binding activity test for JH2 domain of JAK1 (Tb-antibody/tracer FRET)
Details: JH2 domain enzyme; 60 min at 25°C, then 4°C overnight; read-out: JAK1 JH2 Binding IC50
Experimental: Binding Activity test for JH2 domain of JAK1 and TYK2 […] Add 8μL/well in echo source plate, echo will add 75nL/well with 3-fold serial dilution for 11 points in assay plate. 75nL DMSO for high control and low control. […] For low control, add 5μL/well assay buffer. And then spin down at 1000rpm and centrifuge for 30 seconds. […] Read by envision in FRET mode. The Luminescence value was recorded by a multi-label reader Envision (PerkinElmer). […]
Could you please mark t for values of IC50 below 0.02 µM and f for values at or above it?

Field: example entries. Status: answers known.
compound=[2H]C([2H])([2H])NC(=O)c1cnc(NC(=O)C2CC2)cc1Nc1cnn2cccc(OC)c12 cat=f
compound=COC(=O)c1cnc(Nc2ccc(F)cn2)cc1Nc1nn(C)c2ccc([C@H](OC)C(F)(F)F)c(OC)c12 cat=f
compound=[2H]C([2H])([2H])NC(=O)c1cnc(Nc2ccc(F)cn2)cc1Nc1cnn2ccc([C@H](O)C(F)(F)F)c(OC)c12 cat=t
compound=CNC(=O)c1cnc(NC(=O)C2CC2)cc1Nc1nn(C)c2ccc([C@H](OC)C(F)(F)F)c(OC)c12 cat=t
compound=[2H]C([2H])([2H])OC(=O)c1cnc(NC(=O)C2CC2)cc1Nc1cnn2ccc([C@H](OC([2H])([2H])[2H])C(F)(F)F)c(OC)c12 cat=f

## Task Is the reported IC50 for COC(=O)c1cnc(NC(=O)C2CC2)cc1Nc1cnn2ccc([C@H](OC)C(F)(F)F)c(OC)c12 strictly below 0.02 µM?
## Result f

## Task Is IC50 strictly under 0.02 µM for the entry [2H]C([2H])([2H])NC(=O)c1cnc(Nc2cc(C)nc(C)n2)cc1Nc1cnn2ccc([C@H](O)C(F)(F)F)c(OC)c12 ?
## Result t

## Task # TODO verify IC50 < 0.02 µM strictly for this compound: COC1CN(c2ccc3nc(Nc4cc(NC(=O)C5CC5)ncc4C(C)(F)F)nn3c2)C1
## Result t

## Task Does this compound meet the criterion IC50 < 0.02 µM? [2H]C([2H])([2H])NC(=O)c1cnc(NC(=O)C2CC2)cc1Nc1cnn2ccc(CC(C)(F)F)c(OC)c12
## Result t
